Origin of values: paper PMC11062922

Reported values of CATDS for individual entries
- TESTED SYSTEM: CSNK1E (Homo sapiens, UniProt P49674)
- Construct: endogenous in cells
- Sequence (P49674 whole entry): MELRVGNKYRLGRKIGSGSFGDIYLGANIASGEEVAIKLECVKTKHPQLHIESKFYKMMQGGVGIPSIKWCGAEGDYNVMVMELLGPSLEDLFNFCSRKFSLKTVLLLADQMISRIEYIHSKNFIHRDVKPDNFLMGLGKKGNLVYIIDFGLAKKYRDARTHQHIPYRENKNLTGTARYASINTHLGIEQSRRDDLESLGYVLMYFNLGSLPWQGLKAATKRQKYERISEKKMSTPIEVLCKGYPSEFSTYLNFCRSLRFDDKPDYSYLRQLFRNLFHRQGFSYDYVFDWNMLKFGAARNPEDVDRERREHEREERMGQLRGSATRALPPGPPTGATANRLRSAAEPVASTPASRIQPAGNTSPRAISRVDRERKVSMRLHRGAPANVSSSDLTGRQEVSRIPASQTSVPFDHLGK
- PROTOCOL NOTES: Kinobeads competition binding: CSNK1E
- SETTINGS: target CSNK1E

COMPOUND: CCc1cc2c(cc1N1CCC(N3CCOCC3)CC1)C(C)(C)c1[nH]c3cc(C#N)ccc3c1C2=O [Alectinib]
CATDS: 0
//
COMPOUND: CN(C)C/C=C/C(=O)Nc1cc2c(Nc3ccc(F)c(Cl)c3)ncnc2cc1O[C@H]1CCOC1 [Afatinib]
CATDS: 0
//
COMPOUND: Nc1ncnc2[nH]c(-c3ccccc3)nc12 [AH5015_KCGS]
CATDS: 0
//
COMPOUND: N#CC1(c2ccc(NC(=O)c3cccnc3NCc3ccncc3)cc2)CCCC1 [Apatinib]
CATDS: 0
